Cited source: patent US20120142771A1

Tested on: maximum electroshock seizure (MES) model
Assay: Maximum electroshock seizure (MES) model test
Type: in vivo, mice
Details: Mus musculus, po, 1 h, 100 mg/kg oral, Slc: ddY male mice, 3 per group, electrical stimulation 1 hour after administration; inhibition of hind limb extension; read-out: MES (positive number/tested number) (converted)
recorded.metric: responders at 100 mg/kg (%)
State just the number; it will be interpreted in %.

Query string: Query responders at 100 mg/kg for CNC(=O)Cc1ccccc1-c1ccc(Cl)cc1 [Example 11]
Result string: 100

Query string: Query responders at 100 mg/kg for COC(C(N)=O)c1ccccc1-c1ccccc1F (centres unmarked) [Example 200]
Result string: 100

Query string: Query responders at 100 mg/kg for CNC(=O)Cc1ccccc1-c1ccc(C(F)(F)F)cc1 [Example 2]
Result string: 100

Query string: Query responders at 100 mg/kg for COC(C(N)=O)c1ccccc1-c1cccc(Cl)c1 (centres unmarked) [Example 206]
Result string: 66.7

Query string: Query responders at 100 mg/kg for CNC(=O)Cc1cc(F)ccc1-c1ccc(C(F)(F)F)cc1 [Example 136]
Result string: 100

Query string: Query responders at 100 mg/kg for NC(=O)Cc1ccccc1-c1cccc(OC(F)(F)F)c1 [Example 79]
Result string: 100

Query string: Query responders at 100 mg/kg for CNC(=O)Cc1ccccc1-c1ccc(Cl)cc1C(F)(F)F [Example 105]
Result string: 0

Query string: Query responders at 100 mg/kg for NC(=O)[C@H](O)c1ccccc1-c1ccccc1 (single isomer, unassigned) [Example 207, 2-(Biphenyl-2-yl)-2R-hydroxyacetamide]
Result string: 100

Query string: Query responders at 100 mg/kg for NC(=O)C(O)c1ccccc1-c1ccc(F)cc1 (centres unmarked) [Example 179]
Result string: 100

Query string: Query responders at 100 mg/kg for CNC(=O)C(C)c1ccccc1-c1cccc(F)c1 (centres unmarked) [Example 176]
Result string: 33.3

Query string: Query responders at 100 mg/kg for NC(=O)Cc1ccccc1-c1ccc(Cl)cc1F [Example 68]
Result string: 100

Query string: Query responders at 100 mg/kg for NC(=O)C(O)c1ccccc1-c1ccccc1 (centres unmarked) [Example 59, 2-(Biphenyl-2-yl)-2-hydroxyacetamide]
Result string: 100

Query string: Query responders at 100 mg/kg for CNC(=O)C(F)c1ccccc1-c1cccc(F)c1 (centres unmarked) [Example 161]
Result string: 66.7

Query string: Query responders at 100 mg/kg for NC(=O)C(O)c1ccccc1-c1cc(Cl)cc(Cl)c1 (centres unmarked) [Example 183]
Result string: 100

Query string: Query responders at 100 mg/kg for CNC(=O)Cc1cc(Cl)ccc1-c1ccc(F)cc1 [Example 130]
Result string: 100

Query string: Query responders at 100 mg/kg for NC(=O)C(O)c1ccccc1-c1ccccc1Cl (centres unmarked) [Example 190]
Result string: 100

Query string: Query responders at 100 mg/kg for CNC(=O)Cc1cc(F)ccc1-c1ccccc1F [Example 47]
Result string: 100

Query string: Query responders at 100 mg/kg for CNC(=O)Cc1ccc(F)cc1-c1ccccc1 [Example 40]
Result string: 100

Query string: Query responders at 100 mg/kg for NC(=O)Cc1ccccc1-c1cc(F)ccc1F [Example 152, 2-(2′,5′-difluorobiphenyl-2-yl)acetamide]
Result string: 100

Query string: Query responders at 100 mg/kg for NC(=O)C(O)c1cc(F)ccc1-c1ccccc1 (centres unmarked) [Example 186]
Result string: 100
